Exercise: for every item that follows, state its recorded Ratio anti-MUC16 Binding OVCAR-3/SK-OV-3.
Target desc: T1, human MUC16 (mucin 16) (human)
T1 construct: Endogenously expressed on human tumour cell lines; also called hMUC16
Assay comment: MSD ECL cell binding, RLU ratio OVCAR-3 vs SK-OV-3, 1.9 nM Ab
Quick note: unit goes after the number.

In plain terms, H1H8808P (antibody, human IgG1, V domains shown, Human IgG1) VH: QVQLVESGGGVVQPGRSLRLSCVASGFTFSNYGIHWVRQAPGKGLEWVAVISDDGSFKFYADSVKGRFTISRDNSKNTLYLQMNSLRVEDSAVYHCAKWQHNWNDGGFDYWGQGTLVTVSS VL: EIVLTQSPDTLSLSPGERATLSCRASQSLSSNYLAWYRQKPGQAPRLLIYGISSRATGIPDRFSGSGSGTDFTLTISRLEPEDFAVYYCQQYGSSPWTFGQGTKVEIK has a documented Ratio anti-MUC16 Binding OVCAR-3/SK-OV-3 of 4 ratio

Record H1H8783P (antibody, human IgG1, V domains shown, Human IgG1) VH: QVQLVESGGGVVQPGRSLRLSCAASGFTFSDHAMHWVRQAPGKGLEWVAVISYHGTDKQYGDSVKGRFTISRDNSKNALYLQMNSLRPEDTAMYYCAKDGYDFWNAYSLFDYWGQGTLVTVSS VL: DIQMTQSPSSLSASVGDRVTITCRASQSISNYLNWYQQKPGKAPKLLIYTASSLLSGVPSRFSGSGSGTDFTLTISSLQPEDFATYYCQQSYSTPPITFGQGTRLEIK . Reported Ratio anti-MUC16 Binding OVCAR-3/SK-OV-3: 11 ratio

Form: binder = H3M9529N (antibody, mouse IgG3, V domains shown, Human variable regions, mouse IgG3 constant region) VH: QVQLQQWGAGLLKPSETLSLTCAVYGGSFSGFYWSWIRQPPGKGLEWIGEINHSGSAKYNPSLKNRVIISIDTSKNQFSLKLDSVTAADTAVYNCARQGWNFAIFDYWGQGTLVDVSS VL: DIVMTQSPDSLAVSLGGRATINCKSSQSVLHSSYNKDHLAWYQQRPGQPPKLLIYWASTRESGVPDRFSGSGSGTDFTLTISSLQAEDVAVYYCQQYNILPPTFGQGTRVEIK ; Ratio anti-MUC16 Binding OVCAR-3/SK-OV-3 = 143 ratio

Data provenance is patent US20180118848A1.
